Numbers sourced from patent US20250074911A1.

Assay System: wt-BTK (Homo sapiens (Human))
Sequence (Q06187 whole entry): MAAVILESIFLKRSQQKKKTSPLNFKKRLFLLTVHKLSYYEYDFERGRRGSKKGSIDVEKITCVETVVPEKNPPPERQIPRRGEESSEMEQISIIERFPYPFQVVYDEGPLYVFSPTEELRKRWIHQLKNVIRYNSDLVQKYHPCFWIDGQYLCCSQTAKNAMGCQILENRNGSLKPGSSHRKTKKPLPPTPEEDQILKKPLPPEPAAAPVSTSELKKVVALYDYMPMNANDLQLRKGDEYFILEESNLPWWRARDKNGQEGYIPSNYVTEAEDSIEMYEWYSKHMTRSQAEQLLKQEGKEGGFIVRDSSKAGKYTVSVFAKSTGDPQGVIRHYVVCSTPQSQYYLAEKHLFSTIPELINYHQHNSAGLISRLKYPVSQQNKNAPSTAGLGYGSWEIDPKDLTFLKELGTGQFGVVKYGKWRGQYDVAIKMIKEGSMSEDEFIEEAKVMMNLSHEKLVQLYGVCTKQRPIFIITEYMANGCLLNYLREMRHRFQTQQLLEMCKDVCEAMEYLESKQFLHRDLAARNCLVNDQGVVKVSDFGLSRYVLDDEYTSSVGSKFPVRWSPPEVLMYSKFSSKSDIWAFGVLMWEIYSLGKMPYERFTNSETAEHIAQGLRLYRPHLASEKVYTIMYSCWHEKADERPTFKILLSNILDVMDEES
Test Name: Binding kinetics measurements (Surface Plasmon Resonance) on wt-BTK
Conditions Used: target residence time, SPR
Reported Endpoint: Tau (h) wt-BTK (Act)

CC(=O)N1C[C@@H]2C[C@@H]1C(=O)NCCCCC/C=C/c1cnc(N)c3c(-c4ccc(C(=O)Nc5cc(C(F)(F)F)ccn5)cc4)nn2c13
2.76

A: Nc1ncc2c3c1c(-c1ccc(C(=O)Nc4cc(C(F)(F)F)ccn4)cc1)nn3[C@@H]1CCC[C@H](C1)NC(=O)COC/C=C/2
B: N#Cc1ccnc(NC(=O)c2ccc(-c3nc4n5c(cnc(N)c35)/C=C/CCCCCC(=O)N[C@@H]3CC[C@@H]4C3)cc2)c1
C: Nc1ncc2c3c1c(-c1ccc(C(=O)Nc4cc(C(F)(F)F)ccn4)cc1)nn3[C@@H]1CCC[C@H](C1)C(=O)NCCCC/C=C/2
Let's sort these by Tau (h) wt-BTK (Act), smallest first. Go ahead? Your task in answering is to list the labels in the requested order.
A, B, C

I: Nc1ncc2c3c1c(-c1ccc(C(=O)Nc4cc(C(F)(F)F)ccn4)cc1)nn3[C@@H]1CCC[C@H](C1)NC(=O)CNC[C@@H](O)/C=C/2
II: COc1ccnc(NC(=O)c2ccc(-c3nc4n5c(cnc(N)c35)/C=C/CCOCCC(=O)N[C@@H]3CC[C@@H]4C3)cc2)c1
Returns the identifier with the smallest measured Tau (h) wt-BTK (Act) among I and II . Answer = label.
II
(II: 2.78 h, I: 4.22 h)
